Tested on: BT-20
Experiment: relative cell number vs DMSO control (72 h) (% of DMSO); higher = less growth inhibition (more cells)
Settings: sgRNA knockout: sgNT, 100 nM
Category | rule: reported relative cell number within range, see one: < 80; two: ≥ 80 and < 100; three: ≥ 100

The following molecules have reported results that may help.
O=C1CCC(N2C(=O)c3ccccc3C2=O)C(=O)N1 (stereo not drawn) [Thalidomide]; two
Nc1nc(Cl)nc2c1ncn2[C@@H]1O[C@H](CO)[C@@H](O)[C@@H]1F; one
CC(C)(C)OC(=O)CN(Cc1ccc(Cl)cc1)Cc1ccc([N+](=O)[O-])s1; three
CC(C)n1cnc2c(NCCc3ccc(O)cc3)nc(-c3csc4ccccc34)nc21; three
Nc1ncn([C@H]2C[C@H](O)[C@@H](CO)O2)c(=O)n1; two

### Prompt Given CC(C)(C#N)c1cc(Cn2cncn2)cc(C(C)(C)C#N)c1 , name the class its relative cell number places it in.
### Response three

### Prompt Given CC(C)OC(=O)C1=CN(C(=O)c2ccc(F)c(F)c2)CC(C)(C)c2c1[nH]c1ccccc21 , name the class its relative cell number places it in.
### Response one

* * *

Tested on: BT-20
Test: relative cell number vs DMSO control (72 h) (% of DMSO); higher = less growth inhibition (more cells)
Settings: sgRNA knockout: sgNT, 1000 nM
Classify by measured relative cell number: MET if it is equal to or exceeds 80, NOT MET if it is smaller.

The following molecules have reported results that may help.
C[C@@H](Oc1cc(-c2cnn(C3CCNCC3)c2)cnc1N)c1c(Cl)ccc(F)c1Cl; NOT MET
N#Cc1ccc(C(c2ccc(C#N)cc2)n2cncn2)cc1; MET
CC(C)[C@H](O)C(=O)N[C@@H](C)C(=O)N[C@@H]1C(=O)N(C)CCc2ccccc21; MET
CN1CCN(CCOc2cc(OC3CCOCC3)c3c(Nc4c(Cl)ccc5c4OCO5)ncnc3c2)CC1; NOT MET
Cc1ncc([N+](=O)[O-])n1CC(O)CCl (centres undefined); MET
Cc1cc(C2CCCCC2)n(O)c(=O)c1; NOT MET

### Prompt Reported relative cell number at or above 80? Cc1c(Cn2c(C)nc3c(C(=O)O)cc(N4CCOCC4)cc32)cccc1C(F)(F)F
### Response MET

### Prompt Reported relative cell number at or above 80? O=C(O)CC[C@H]1CC[C@@](c2cc(F)ccc2F)(S(=O)(=O)c2ccc(Cl)cc2)CC1
### Response MET

### Prompt Reported relative cell number at or above 80? NC(=O)Nc1sc(-c2ccc(F)cc2)cc1C(N)=O
### Response MET

### Prompt Reported relative cell number at or above 80? COc1ccc(-c2ccc3c(N4CCOCC4)nc(N4C[C@@H](C)O[C@@H](C)C4)nc3n2)cc1CO
### Response NOT MET

### Prompt Reported relative cell number at or above 80? C=CC[C@@H]1/C=C(\C)C[C@H](C)C[C@H](OC)[C@H]2O[C@@](O)(C(=O)C(=O)N3CCCC[C@H]3C(=O)O[C@H](/C(C)=C/[C@@H]3CC[C@@H](O)[C@H](OC)C3)[C@H](C)[C@@H](O)CC1=O)[C@H](C)C[C@@H]2OC
### Response MET

### Prompt Reported relative cell number at or above 80? CC(=O)Nc1nc(C)c(S(=O)(=O)Nc2ccc(C(O)(C(F)(F)F)C(F)(F)F)cc2)s1
### Response MET

### Prompt Reported relative cell number at or above 80? C[C@@H](Nc1cc(F)cc(F)c1)c1cc(C(=O)N(C)C)cc2c(=O)cc(N3CCOCC3)oc12
### Response MET

### Prompt Reported relative cell number at or above 80? COc1cc(C(=O)N2CCC(N3CCN(C)CC3)CC2)ccc1Nc1ncc2c(n1)N(C)c1ccccc1C(=O)N2C
### Response MET

### Prompt Reported relative cell number at or above 80? COc1cc(OC)c(/C=C/S(=O)(=O)Cc2ccc(OC)c(NCC(=O)O)c2)c(OC)c1
### Response NOT MET

### Prompt Reported relative cell number at or above 80? CCOC(=O)[C@@]1(CCCCCCOc2ccc(Cl)cc2)CO1
### Response MET

### Prompt Reported relative cell number at or above 80? C[C@]1(c2nc3c(C(N)=O)cccc3[nH]2)CCCN1
### Response MET

### Prompt Reported relative cell number at or above 80? CN1CCN(CCCN2c3ccccc3Sc3ccc(C(F)(F)F)cc32)CC1
### Response MET
